Attribute: cAMP Rel EC50 (1% HSA)
study.system: hGLP-1R (Homo sapiens, UniProt P43220)
Sequence (P43220 24-463): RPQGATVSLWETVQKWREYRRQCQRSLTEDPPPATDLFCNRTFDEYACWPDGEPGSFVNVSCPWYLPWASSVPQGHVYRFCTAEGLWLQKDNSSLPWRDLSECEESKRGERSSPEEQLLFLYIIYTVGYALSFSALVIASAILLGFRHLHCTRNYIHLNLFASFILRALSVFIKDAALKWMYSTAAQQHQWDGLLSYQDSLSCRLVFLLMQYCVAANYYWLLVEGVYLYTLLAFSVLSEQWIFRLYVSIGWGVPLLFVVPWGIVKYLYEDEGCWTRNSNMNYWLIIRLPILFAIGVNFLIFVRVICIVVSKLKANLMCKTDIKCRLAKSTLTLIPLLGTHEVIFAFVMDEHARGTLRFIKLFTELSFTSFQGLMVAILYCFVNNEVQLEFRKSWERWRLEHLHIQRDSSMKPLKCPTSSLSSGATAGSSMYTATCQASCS
test.protocol: cell-based or functional assay
Starred links: 1 amine or outer side, 2 acyl side, 3 side chain; linkers in the order of their positions; H or OH if unused. Non-standard residues stand in square brackets, D forms with d. Groups on a side chain read outwards from the residue. No end group written: not given here. *: point of attachment. C20 diacid = O=C(O)CCCCCCCCCCCCCCCCCCC(=O)*; γGlu = O=C(O)[C@H](CCC(=O)[*:2])N[*:1]; αMeL = CC(C)C[C@](C)(N)C(=O)O; AEEA = NCCOCCOCC(=O)O; Aib = CC(C)(N)C(=O)O
The answer is to be given in nM; state only the numeric part.

[[record]]
binder = "YXQGTXTSDXXILLDXKAQXXFIEYLIEGGPSSGEPPPSGTE (synthetic construct; SITE 2: note = 2-Aminoisobutyric Acid; SITE 6: note = alpha-methyl-2-fluoro-L-phenylalanine; SITE 10: note = 3-(4-Pyridyl)-L-alanine; SITE 11: note = alpha-methyl-L-serine; SITE 16: note = L-ornithine; SITE 17: note = Lysine is chemically modified through conjugation of the epsi) [Example 531]"
unit = "nM"
measured_result = 37.8

[[record]]
binder = "YXQGTFTSDXSQXLDKKAQXAFIEXLIEXGPSSGEPPPSGSEE (Aib, 4Pal, Me4Pal, αMeL; lipidated Lys; C-terminal amide; synthetic construct; SITE 2: note = 2-Aminoisobutyric Acid; SITE 10: note = 3-(4-Pyridyl)-L-alanine; SITE 13: note = alpha-methyl-leucine; SITE 17: note = Lysine is chemically modified through conjugation of the epsilon-amino group of the Lysine side chain with (gamma-Glu)2-CO-(CH2)16-CO2H; SITE 20:) [Example 1125]"
unit = "nM"
measured_result = 243

[[record]]
binder = "Y[Aib]QGTFTSDYSI[αMeL]LDKIAAK([AEEA-AEEA-γGlu-C20 diacid])QFVEYLIAGGPSSGEPPPSEG-NH2 [Example 312]"
unit = "nM"
measured_result = 589

[[record]]
binder = "YXQGTFTSDFSXXLDKKAQXAFIEYLIEXGPSSGAPPPSGS (synthetic construct; SITE 2: note = 2-Aminoisobutyric Acid; SITE 12: note = (S)-2,3-diaminopropanoic acid; SITE 13: note = alpha-methyl-leucine; SITE 17: note = Lysine is chemically modified through conjugation of the epsilon-amino group of the Lysine side chain with (2-[2-(2-Amino-ethoxy)-ethoxy]-a)) [Example 800]"
unit = "nM"
measured_result = 164

[[record]]
binder = "YXQGTXTSDXXIXLDXKAAXEFIEXLIEGGPSSGAPPPSGSE (synthetic construct; SITE 2: note = 2-Aminoisobutyric Acid; SITE 6: note = alpha-methyl-2-fluoro-L-phenylalanine; SITE 10: note = 3-(4-Pyridyl)-L-alanine; SITE 11: note = alpha-methyl-L-serine; SITE 13: note = alpha-methyl-leucine; SITE 16: note = L-ornithine; SITE 17: note = Lysine is chemically mo) [Example 702]"
unit = "nM"
measured_result = 28.4


Now look at this one.
Query: Entry YXQGTFTSDXSXXLDXKAQXAFIEYLLAGGPSSGAPPPSGSEE (C-terminal amide; lysine acylated with (γ-Glu)2-C18 diacid; synthetic construct; SITE 2: note = 2-Aminoisobutyric Acid; SITE 10: note = 3-(4-Pyridyl)-L-alanine; SITE 12: note = L-ornithine; SITE 13: note = alpha-methyl-leucine; SITE 16: note = L-ornithine; SITE 17: note = Lysine is chemically modified through conjugation of the epsilon-amino group of the Lys) [Example 1068] : reported cAMP Rel EC50 (1% HSA) = ?
Response: 1330
